system: START domain of human CERT (Homo sapiens, UniProt Q9Y5P4)
Construct: The START domain of hCERT was expressed has a His6-SUMO fusion protein [2]; His6-SUMO (N, cleaved yes); made in house; host or cells: E. coli BL21(DE3), pQE-based plasmid
Sequence (Q9Y5P4 347-598 isoform Q9Y5P4-2 limits assumed): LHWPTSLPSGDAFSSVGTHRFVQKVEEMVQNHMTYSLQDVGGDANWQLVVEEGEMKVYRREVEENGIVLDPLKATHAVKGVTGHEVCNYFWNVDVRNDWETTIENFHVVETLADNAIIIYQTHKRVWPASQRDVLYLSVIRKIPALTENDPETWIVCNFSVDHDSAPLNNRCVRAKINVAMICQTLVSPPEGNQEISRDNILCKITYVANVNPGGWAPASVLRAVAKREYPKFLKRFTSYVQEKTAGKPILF
run description: Microscale thermophoresis (MST) binding assay
test settings: fluorescently labeled START domain 50 nM, read-out: KD
value kind: pKd
Note on units: pKd is unitless, being -log10 of a concentration expressed in mol/L.

IN: Report pKd for CCCCCCCCCCCC(=O)NC(CO)CC(O)c1ccccc1 (stereo not shown) [HPA-12] tested on START domain of human CERT (Homo sapiens, UniProt Q9Y5P4).
OUT: 7.38
